Origin of measurements: patent US10501461B2

Endpoint: Ki. System: UniProt:O75116. Items follow.

Worked examples, 3 compounds total:
* Cc1c[nH]c2nccc(Oc3ccc(C[C@@H](N)C(=O)NC4CCCCC4)cc3F)c12 | < 3 nM
* Cc1c[nH]c2nccc(Oc3ccc(CC(N)C(=O)NCCc4ccncc4)cc3F)c12 (stereo not shown) [Example 57] | < 3 nM
* N[C@H](Cc1ccc(Oc2ccnc3[nH]ccc23)cc1)C(=O)NC1CCOCC1 | > 30 nM

With those in mind, consider the next compound.
Recorded Ki for Cc1c[nH]c2nccc(Oc3ccc(CC(N)C(=O)N4CCc5ccncc5C4)cc3F)c12 (stereo not shown) , please?
< 3 nM

====

Endpoint: pKi. System: Rho kinase 1 (ROCK-I) (Homo sapiens, UniProt Q13464). Items follow.
Sequence (Q13464 whole entry): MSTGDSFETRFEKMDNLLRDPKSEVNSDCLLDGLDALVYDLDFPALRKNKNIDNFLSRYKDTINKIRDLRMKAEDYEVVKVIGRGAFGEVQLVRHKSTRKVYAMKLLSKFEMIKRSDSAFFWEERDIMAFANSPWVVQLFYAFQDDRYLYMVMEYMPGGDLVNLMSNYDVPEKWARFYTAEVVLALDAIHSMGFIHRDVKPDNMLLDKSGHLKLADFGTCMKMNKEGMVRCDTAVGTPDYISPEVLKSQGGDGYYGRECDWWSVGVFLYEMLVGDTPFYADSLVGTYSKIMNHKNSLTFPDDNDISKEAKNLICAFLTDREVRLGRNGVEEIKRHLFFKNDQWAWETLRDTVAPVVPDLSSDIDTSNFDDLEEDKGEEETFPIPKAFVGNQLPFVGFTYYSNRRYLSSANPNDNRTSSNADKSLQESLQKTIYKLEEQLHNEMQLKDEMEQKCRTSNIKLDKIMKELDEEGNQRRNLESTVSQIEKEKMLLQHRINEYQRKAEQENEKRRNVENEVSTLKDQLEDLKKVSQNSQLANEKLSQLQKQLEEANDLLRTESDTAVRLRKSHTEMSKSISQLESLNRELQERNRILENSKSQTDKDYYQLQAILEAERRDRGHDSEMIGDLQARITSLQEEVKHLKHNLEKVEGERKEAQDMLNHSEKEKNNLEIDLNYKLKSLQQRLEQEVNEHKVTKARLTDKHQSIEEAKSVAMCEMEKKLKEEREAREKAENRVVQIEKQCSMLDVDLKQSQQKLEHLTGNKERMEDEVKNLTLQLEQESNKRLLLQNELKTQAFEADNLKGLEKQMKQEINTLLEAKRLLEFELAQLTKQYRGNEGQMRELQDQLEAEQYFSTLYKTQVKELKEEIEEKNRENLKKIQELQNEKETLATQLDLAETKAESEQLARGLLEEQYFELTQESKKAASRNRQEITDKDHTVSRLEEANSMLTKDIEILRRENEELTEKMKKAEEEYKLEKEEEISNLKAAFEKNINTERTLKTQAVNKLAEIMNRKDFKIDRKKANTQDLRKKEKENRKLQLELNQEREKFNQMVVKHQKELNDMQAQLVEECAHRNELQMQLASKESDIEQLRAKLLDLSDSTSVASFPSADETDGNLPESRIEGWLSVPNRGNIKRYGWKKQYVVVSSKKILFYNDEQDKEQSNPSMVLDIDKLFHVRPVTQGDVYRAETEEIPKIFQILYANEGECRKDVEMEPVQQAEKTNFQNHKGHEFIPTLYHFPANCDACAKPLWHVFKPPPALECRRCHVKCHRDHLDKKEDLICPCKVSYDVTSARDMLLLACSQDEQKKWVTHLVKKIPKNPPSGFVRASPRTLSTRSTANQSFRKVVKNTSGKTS
pKi: −log10 of the molar value.

Worked examples, 2 compounds total:
• Cc1c[nH]c2nccc(Oc3ccc(C[C@H](N)C(=O)NC4(CO)CCOCC4)cc3F)c12 = > 8.52
• COc1ccc(CN2CCN(C(=O)C(N)Cc3ccc(Oc4ccnc5[nH]cc(C)c45)c(F)c3)CC2)cc1 (centres unmarked) = > 8.52

Recorded pKi for Cc1c[nH]c2nccc(Oc3ccc(C[C@H](N)C(=O)NC4(C(N)=O)CCCCC4)cc3F)c12 , please?
> 8.52

And for Cc1c[nH]c2nccc(Oc3ccc(C[C@H](N)C(=O)N4CCN(C(=O)N(C)C)CC4)cc3F)c12 ?
> 8.52

And for Cc1c[nH]c2nccc(Oc3ccc(CC(N)C(=O)NC4CCN(Cc5ccccc5)CC4)cc3F)c12 (centres unmarked) ?
> 8.52

And for Cc1c[nH]c2nccc(Oc3ccc(C[C@@H](N)C(=O)NCC4CCCCC4)cc3)c12 ?
7.52 to 8.52

And for Cc1c[nH]c2nccc(Oc3ccc(CC(N)C(=O)NC4Cc5ccccc5C4)cc3F)c12 (centres unmarked) ?
> 8.52

And for CN(C)CCNC(=O)C(Cc1ccc(Oc2ccnc3[nH]ccc23)cc1)NC(=O)C1CCCCC1 (centres unmarked) ?
< 7.52

====

Endpoint: Ki. System: Rho kinase 2 (ROCK-II) (Homo sapiens, UniProt O75116). Items follow.
Sequence (O75116 whole entry): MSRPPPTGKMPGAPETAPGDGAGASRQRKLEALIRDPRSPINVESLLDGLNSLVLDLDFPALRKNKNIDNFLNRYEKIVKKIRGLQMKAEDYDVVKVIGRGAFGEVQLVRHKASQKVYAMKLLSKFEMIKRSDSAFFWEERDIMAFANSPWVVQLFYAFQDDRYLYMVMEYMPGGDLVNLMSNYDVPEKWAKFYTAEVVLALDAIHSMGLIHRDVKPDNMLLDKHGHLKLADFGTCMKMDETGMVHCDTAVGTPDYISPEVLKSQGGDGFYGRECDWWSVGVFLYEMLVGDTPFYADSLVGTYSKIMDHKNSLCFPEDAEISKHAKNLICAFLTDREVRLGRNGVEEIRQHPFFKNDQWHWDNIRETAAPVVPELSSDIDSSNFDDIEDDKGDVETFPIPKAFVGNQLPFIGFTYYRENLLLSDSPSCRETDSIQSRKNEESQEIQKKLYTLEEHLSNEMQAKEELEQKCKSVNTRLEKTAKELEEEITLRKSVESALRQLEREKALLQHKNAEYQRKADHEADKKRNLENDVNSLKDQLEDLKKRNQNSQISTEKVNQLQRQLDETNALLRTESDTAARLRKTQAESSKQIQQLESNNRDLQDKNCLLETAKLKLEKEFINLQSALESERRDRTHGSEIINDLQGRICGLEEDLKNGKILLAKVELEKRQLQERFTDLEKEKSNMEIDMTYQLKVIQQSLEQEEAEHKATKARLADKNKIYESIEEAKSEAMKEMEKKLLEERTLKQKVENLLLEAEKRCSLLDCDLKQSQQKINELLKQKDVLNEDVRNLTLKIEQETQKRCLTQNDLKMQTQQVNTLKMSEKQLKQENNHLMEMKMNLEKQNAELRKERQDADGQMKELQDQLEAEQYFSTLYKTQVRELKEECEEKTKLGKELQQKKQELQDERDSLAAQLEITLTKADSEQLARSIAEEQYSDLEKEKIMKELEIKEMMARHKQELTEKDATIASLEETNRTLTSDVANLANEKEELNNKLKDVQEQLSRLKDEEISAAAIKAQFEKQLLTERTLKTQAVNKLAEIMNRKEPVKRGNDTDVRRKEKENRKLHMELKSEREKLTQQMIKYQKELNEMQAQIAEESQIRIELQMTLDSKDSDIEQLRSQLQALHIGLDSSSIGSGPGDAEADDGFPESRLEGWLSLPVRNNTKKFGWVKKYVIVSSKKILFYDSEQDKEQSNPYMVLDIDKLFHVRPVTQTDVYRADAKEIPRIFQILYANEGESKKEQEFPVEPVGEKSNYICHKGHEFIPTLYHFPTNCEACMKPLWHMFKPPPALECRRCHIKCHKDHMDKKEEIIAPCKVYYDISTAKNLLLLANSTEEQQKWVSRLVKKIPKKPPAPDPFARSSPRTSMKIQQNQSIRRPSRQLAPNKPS

Worked examples, 6 compounds total:
* Cc1c[nH]c2nccc(Oc3ccc(C[C@H](N)C(=O)N4CCC(S(=O)(=O)c5ccccc5)CC4)cc3F)c12 | < 3 nM
* COCc1c[nH]c2nccc(Oc3ccc(C[C@H](N)C(=O)N4CCN(C)CC4)cc3F)c12 | 3 to 30 nM
* CN1CCC(NC(=O)[C@@H](N)Cc2ccc(Oc3ccnc4[nH]cc(CO)c34)c(F)c2)CC1 | 3 to 30 nM
* Cc1c[nH]c2nccc(Oc3ccc(C[C@@H](N)C(=O)NCc4ccccc4)cc3)c12 | 3 to 30 nM
* Cc1c[nH]c2nccc(Oc3ccc(C[C@H](N)C(=O)NC4CCCCC4)cc3)c12 | < 3 nM
* Cc1c[nH]c2nccc(Oc3ccc(C[C@H](N)C(=O)N4CCN(C(=O)c5ccc(CN(C)C)cc5)CC4)cc3F)c12 | < 3 nM

Form field - read-out: Ki; system: Rho kinase 2 (ROCK-II) (Homo sapiens, UniProt O75116); submitted item: Cc1c[nH]c2nccc(Oc3ccc(C[C@H](N)C(=O)N4CCN(Cc5cccnc5)CC4)cc3F)c12
< 3 nM
